- Test system: HaCat
- Experiment notes: Cytotoxic Profiling of Annotated Libraries Using Quantitative High-Throughput Screening (AID 1296008); note: % is set by controls: 0 for no effect and ±100 for the full control effect; nearly all actives have a fitted effect of over 60% in size
- Experimental parameters: Five cell lines viability, CellTiter-Glo ATP luminescence, 48-72 h; active compounds read low
Results filed as inconclusive are left out. Where a SMILES comes first, the peptide text is derived from it. [ ]: non-standard residue; d: D form. dPhe(4-Cl) = N[C@H](Cc1ccc(Cl)cc1)C(=O)O; d2Nal = N[C@H](Cc1ccc2ccccc2c1)C(=O)O; dCit = NC(=O)NCCC[C@@H](N)C(=O)O; d3Pal = N[C@H](Cc1cccnc1)C(=O)O
Endpoint name: max response (%)

[[record]]
molecule = "CN=C(N)NCCCCC/C=C(/C)CC(C)C1OC(=O)C(C)C(O)/C=C/C(C)C(O)CC(O)C(C)C(O)CCC(C)C(O)CC2(O)OC(CC(OC(=O)CC(=O)O)CC(O)CC(O)C(C)C(O)/C(C)=C/CCC1C)CC(O)C2O (centres undefined)"
endpoint_name = "max response"
unit_abbrev = "%"
observed = -0.878

[[record]]
molecule = "CC(C)(O)CC(CO)NC(=O)CC(O)CC(=O)Cc1ccccc1 (centres undefined)"
endpoint_name = "max response"
unit_abbrev = "%"
observed = 3.84

[[record]]
molecule = "CC(C)(C)NC(=O)[C@@H](c1cccnc1)N(C(=O)c1ccco1)c1ccc(C(C)(C)C)cc1"
endpoint_name = "max response"
unit_abbrev = "%"
observed = -16.4

[[record]]
molecule = "C=C1CCC2C(C(C)(C)O)CCC2(C)CC(O)C(=C)CCC1O (centres undefined)"
endpoint_name = "max response"
unit_abbrev = "%"
observed = -2.57

[[record]]
molecule = "CC(C)(C)OC(=O)N1CCC(OCc2nc(-c3ccncc3)no2)CC1"
endpoint_name = "max response"
unit_abbrev = "%"
observed = 4.75

[[record]]
molecule = "CC(Cc1cc2c(c(C(N)=O)c1)N(CCCO)CC2)NCCOc1ccccc1OCC(F)(F)F (centres undefined)"
endpoint_name = "max response"
unit_abbrev = "%"
observed = 2.13

[[record]]
molecule = "CC(O)CCC1C(CO[C@@H]2O[C@H](CO)[C@@H](O)[C@H](O)[C@H]2O)CC(O)CC1(C)C (some centres undefined)"
endpoint_name = "max response"
unit_abbrev = "%"
observed = -5.9

[[record]]
molecule = "C=C[C@H]1[C@H](O[C@@H]2O[C@H](CO)[C@@H](O)[C@H](O)[C@H]2O)OC=C(C(=O)OC)[C@H]1CCOC(=O)c1cc(O)c(O)c(O)c1"
endpoint_name = "max response"
unit_abbrev = "%"
observed = 4.92

[[record]]
molecule = "COc1ccc(CNC(=O)c2cc(-c3cncc(C)c3)ncc2-c2nccs2)nc1OC"
endpoint_name = "max response"
unit_abbrev = "%"
observed = -36.2

[[record]]
molecule = "Cc1ccc(Cc2c(C)nc3nc(SCC(=O)NCCN4CCNCC4)nn3c2C)cc1"
endpoint_name = "max response"
unit_abbrev = "%"
observed = -12.4

[[record]]
molecule = "COc1cc2c(cc1OC)[C@@H]1[C@H](O)[C@@H](OC)C=C3CCN(C2)[C@H]31"
endpoint_name = "max response"
unit_abbrev = "%"
observed = -24.8

[[record]]
molecule = "CC(C)(O)/C=C/C1=CC(=O)[C@@](C)(O)C[C@H]1O"
endpoint_name = "max response"
unit_abbrev = "%"
observed = 4.28

[[record]]
molecule = "C/C(=C\\CCC1(C)C2CCC(C2)C1(C)O)C(=O)O (centres undefined)"
endpoint_name = "max response"
unit_abbrev = "%"
observed = 0.481

[[record]]
molecule = "C=C(C)C(=O)O[C@H]1C[C@@](C)(O)C(=O)CC(O)/C(C)=C\\[C@H]2OC(=O)C(=C)[C@H]12 (some centres undefined)"
endpoint_name = "max response"
unit_abbrev = "%"
observed = -1.1

[[record]]
molecule = "CC(C)c1cc2c(c(O)c1O)[C@@]13CCCC(C)(C)[C@@H]1[C@H](OC3=O)C2=O"
endpoint_name = "max response"
unit_abbrev = "%"
observed = -2.13

[[record]]
molecule = "Cc1cc(C)nc(NS(=O)(=O)c2ccc(NC(=S)NC(=O)COc3ccc(Br)cc3Cl)cc2)n1"
endpoint_name = "max response"
unit_abbrev = "%"
observed = -3.13

[[record]]
molecule = "CN1CCc2nc(C(=O)N[C@@H]3C[C@@H](C(=O)N(C)C)CC[C@@H]3NC(=O)C(=O)Nc3ccc(Cl)cn3)sc2C1"
endpoint_name = "max response"
unit_abbrev = "%"
observed = -24.6

[[record]]
molecule = "C[C@@H]1[C@H]2[C@H](O[C@@H]3O[C@H](CO)[C@@H](O)[C@H](O)[C@H]3O)OC=C(C(=O)O)[C@H]2C[C@@H]1O"
endpoint_name = "max response"
unit_abbrev = "%"
observed = -4.56

[[record]]
molecule = "C/C(=C\\C=C\\C(C)C1CCC2(C)C3CCC4C(C)(C)C(=O)CCC45CC35CCC12C)C(=O)O (centres undefined)"
endpoint_name = "max response"
unit_abbrev = "%"
observed = -16.2

[[record]]
molecule = "CC(C)=CC/C=C(\\C)[C@H]1CC[C@]2(C)[C@@H]1[C@H](O)C[C@@H]1[C@@]3(C)CC[C@H](O)C(C)(C)[C@@H]3[C@@H](O[C@@H]3O[C@H](CO)[C@@H](O)[C@H](O)[C@H]3O)C[C@]12C"
endpoint_name = "max response"
unit_abbrev = "%"
observed = 4.08

[[record]]
molecule = "C[C@H](N)C(=O)N[C@@H](Cc1ccc(O)cc1)C(=O)N1CCC[C@H]1C(=O)NCC(=O)N[C@@H](CCCCN)C(=O)N[C@@H](Cc1ccccc1)C(N)=O"
endpoint_name = "max response"
unit_abbrev = "%"
observed = -13.5

[[record]]
molecule = "CC(=O)N[C@H](Cc1ccc2ccccc2c1)C(=O)N[C@H](Cc1ccc(Cl)cc1)C(=O)N[C@H](Cc1cccnc1)C(=O)N[C@@H](CO)C(=O)N[C@@H](Cc1ccc(O)cc1)C(=O)N[C@H](CCCNC(N)=O)C(=O)N[C@@H](CC(C)C)C(=O)N[C@@H](CCCN=C(N)N)C(=O)N1CCC[C@H]1C(=O)N[C@H](C)C(N)=O (Ac-[d2Nal][dPhe(4-Cl)][d3Pal]SY[dCit]LRP[dA]-NH2)"
endpoint_name = "max response"
unit_abbrev = "%"
observed = -5.33

[[record]]
molecule = "CC1(c2nc3c(C(N)=O)cccc3[nH]2)CCCN1 (centres undefined)"
endpoint_name = "max response"
unit_abbrev = "%"
observed = -9.07

[[record]]
molecule = "C[C@@H]1O[C@@H](O[C@H]2[C@H](O)[C@@H](O)[C@H](OC3CCC4(C)C5CCC(C)(C(CO)OC6OC(CO)C(O)C(O)C6O)CC5=CCC4C3(C)C)O[C@@H]2CO)[C@H](O)[C@H](O)[C@H]1O (some centres undefined)"
endpoint_name = "max response"
unit_abbrev = "%"
observed = -0.0812

[[record]]
molecule = "CC(=O)N[C@H]1[C@H](O[C@H]2CC[C@@]3(C)C(CC[C@]4(C)C3CC=C3C5CC(C)(C)CC[C@]5(C(=O)O)[C@H](O)C[C@]34C)C2(C)C)O[C@H](CO[C@@H]2OC[C@H](O)[C@H](O)[C@H]2O[C@@H]2OC[C@@H](O)[C@H](O)[C@H]2O)[C@@H](O)[C@@H]1O (some centres undefined)"
endpoint_name = "max response"
unit_abbrev = "%"
observed = -6.42

[[record]]
molecule = "COc1ccc(/C=C/C(=O)O[C@@H]2[C@@H](O)[C@H](C)O[C@@H](O[C@H]3[C@@H]4C=CO[C@@H](O[C@H]5O[C@@H](CO)[C@H](O)[C@@H](O)[C@@H]5O)[C@@H]4[C@@]4(CO)O[C@@H]34)[C@@H]2OC(C)=O)cc1"
endpoint_name = "max response"
unit_abbrev = "%"
observed = 3.75

[[record]]
molecule = "O=C(NCc1ccc(F)cc1)C(=O)c1c[nH]c2ccccc12"
endpoint_name = "max response"
unit_abbrev = "%"
observed = -19.7

[[record]]
molecule = "O=C(OC[C@H]1O[C@H](O[C@]2(CO)O[C@H](CO)[C@@H](O)[C@@H]2O)[C@H](O)[C@@H](O)[C@@H]1O)c1ccccc1"
endpoint_name = "max response"
unit_abbrev = "%"
observed = 0.397

[[record]]
molecule = "C=C1CCC2C(C)(C)CCC[C@]2(C)[C@H]1C/C=C(\\CO)C(=O)C(=O)O (some centres undefined)"
endpoint_name = "max response"
unit_abbrev = "%"
observed = 3.5


====

- Test system: Nanoluciferase (engineered Oplophorus gracilirostris luciferase)
- Experiment notes: Primary Nanoluciferase (NLuc) qHTS assay for identification of artifact compounds. (AID 1845222);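 note: NLuc secreted into diluted conditioned medium of S16 cells; 0% = DMSO and -100% = no enzyme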
- Experimental parameters: NLuc-conditioned medium, Nano-Glo luminescence, 5 min; series mostly up to 54.1 µM
The source made the active and inactive calls. Calls follow the shape of the dose curve; as a rule, active = well fitted inhibition curve with a large enough effect; inconclusive = small, poorly fitted or top-dose-only effect; inactive = flat fitted curve, though single readings scatter.
Endpoint name: activity, negative = inhibition

[[record]]
molecule = "CC(=O)NC1=NN(C(C)=O)C(C)(c2ccccc2)S1 (stereo not drawn)"
endpoint_name = "activity, negative = inhibition"
observed = "inactive"

[[record]]
molecule = "C[C@@H]1O[C@@H](O[C@H]2[C@H](O)[C@@H](O)[C@H](O[C@H]3[C@H](O[C@H]4CC[C@@]5(C)C(=CC[C@@H]6C5CC[C@]5(C)[C@@H]7[C@H](C[C@@H]65)O[C@]5(CC[C@@](C)(CO[C@@H]6O[C@H](CO)[C@@H](O)[C@H](O)[C@H]6O)O5)[C@H]7C)C4)O[C@H](CO)[C@@H](O)[C@@H]3O)O[C@@H]2CO)[C@H](O)[C@H](O)[C@H]1O (stereo partly drawn)"
endpoint_name = "activity, negative = inhibition"
observed = "1.75% [at 11.6 µM] (inactive)"

[[record]]
molecule = "C=CC[C@]12C[C@@H](OC)C(=O)C(OC)=C1O[C@@H](c1cc(OC)c3c(c1)OCO3)[C@@H]2C"
endpoint_name = "activity, negative = inhibition"
observed = "inactive"

